assay_target: Neu5Gc(a2-3)Gal(b1-3)[Fuc(a1-4)]GlcNAc
assay_remarks: glycan array binding signal (z-score within array); higher = stronger binding
setup_conditions: glycan notation: IUPAC condensed, linker removed
Shown is part of a subset that was picked to be rich in the strongest signals.
Recorded glycan array binding signal (z-score), one value per entry.
value_type: glycan array binding signal (z-score)

1. SP15308C-bot-338-23-338 (Bacteroides ovatus) (protein) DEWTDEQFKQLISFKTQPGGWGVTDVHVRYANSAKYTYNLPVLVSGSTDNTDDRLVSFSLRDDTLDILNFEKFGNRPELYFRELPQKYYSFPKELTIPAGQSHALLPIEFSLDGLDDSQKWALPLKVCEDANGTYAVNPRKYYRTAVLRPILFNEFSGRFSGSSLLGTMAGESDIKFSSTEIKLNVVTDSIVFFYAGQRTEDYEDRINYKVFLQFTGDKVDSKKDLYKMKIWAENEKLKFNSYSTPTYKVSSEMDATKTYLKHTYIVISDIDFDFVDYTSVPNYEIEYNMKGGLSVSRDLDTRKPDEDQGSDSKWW: 0.492
2. SGC, Q9M345 (protein) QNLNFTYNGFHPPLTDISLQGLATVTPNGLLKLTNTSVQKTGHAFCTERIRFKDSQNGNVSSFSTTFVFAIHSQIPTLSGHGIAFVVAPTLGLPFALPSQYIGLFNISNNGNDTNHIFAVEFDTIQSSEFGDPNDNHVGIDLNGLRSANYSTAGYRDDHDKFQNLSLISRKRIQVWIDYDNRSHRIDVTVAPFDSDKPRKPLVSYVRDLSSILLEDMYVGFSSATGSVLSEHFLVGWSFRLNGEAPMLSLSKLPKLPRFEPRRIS: -0.349
